read-out: ABC Transporter (ABCC2), ABCC2 (gene 1244); assay: LTEA_HepaRG_ABCC2: Life Technologies and Expression Analysis (LTEA) Assay for ABC Transporter (ABCC2) using HepaRG (AID 2283464); settings: mRNA level, 48 h; actives raise or lower the signal
Calls of active or inactive are those of the source. Rule for the calls: active = hit-call score of the fitted dose curve at least 0.9, where 1 is the maximum; inactive = score below 0.9.
endpoint-name: AC50

// below: answered molecules
> print(dat)
                                   molecule    measured.value
1  CN(C)C(=O)NC1(c2ccccc2)CCN(CC[C@@]2(c3ccc(F)c(F)c3)CN(C(=O)c3ccccc3)CCO2)CC1  3.81 µM (active)
2                      C=CCc1ccc(OC)c(OC)c1          inactive
3                      CN(C)CCCN(C)CCCN(C)C          inactive
4                            O=C(O)c1cccnc1          inactive
5                            CCCCCCCC(=O)OC          inactive
6      C#CC(O)C(CC)CCCC (centres undefined)          inactive

query: What AC50 value was documented for this molecule, CC(C)c1cccc(C(C)C)c1NC(=O)NS(=O)(=O)c1cc(C(C)(C)O)co1 ?
result: 3.34 µM (active)

query: Next molecule up: O=C1OC(c2ccc(O)cc2)(c2ccc(O)cc2)c2ccccc21
result: inactive

query: Next molecule up: CCCCC(CC)CO (centres undefined)
result: inactive

query: Next molecule up: COC(=O)[C@H]1[C@H]2C[C@@H]3c4[nH]c5cc(OC)ccc5c4CCN3C[C@H]2C[C@@H](OC(=O)c2cc(OC)c(OC)c(OC)c2)[C@@H]1OC
result: 67.4 µM (active)

query: Next molecule up: CCCCC(CC)COC(=O)CCCCCCCC(=O)OCC(CC)CCCC (centres undefined)
result: inactive

query: Next molecule up: O=C(N[C@@H](c1ccccc1)[C@@H]1CCCCN1)c1cccc(C(F)(F)F)c1Cl
result: 78.1 µM (active)

query: Next molecule up: CC(=O)O[C@]1(C(C)=O)CC[C@H]2[C@@H]3C=C(Cl)C4=CC(=O)[C@@H]5C[C@@H]5[C@]4(C)[C@H]3CC[C@@]21C
result: 50 µM (active)

query: Next molecule up: CSc1ccc(Oc2ccc(S(N)(=O)=O)cc2CN(C)C)cc1C
result: inactive

----------
read-out: catalase (CAT), CAT (gene 847); assay: LTEA_HepaRG_CAT: Life Technologies and Expression Analysis (LTEA) Assay for catalase (CAT) using HepaRG (AID 2283452); details: mRNA level, 48 h; actives raise or lower the signal
Active and inactive are the calls of the source. The calls were made as follows: active = hit-call score of the fitted dose curve at least 0.9, where 1 is the maximum; inactive = score below 0.9.
Use one of these outcomes when replying: class 1 for active, class 0 for inactive

Solved entries (count: 2):
> print(dat)
                                   compound    group
1                                  OCC(O)CO  class 0
2  CCc1cc(C2=C(C(=O)O)N(c3ccccc3C(F)(F)F)S(=O)(=O)c3ccccc32)cc2c1OCO2  class 1

query: Entry CN(C)C(=O)NC1(c2ccccc2)CCN(CCC[C@]2(c3ccc(Cl)c(Cl)c3)CCCN(C(=O)c3ccccc3)C2)CC1 : call = ?
result: class 1

query: Next compound up: O=C(O)c1[nH]n(-c2ccc(S(=O)(=O)O)cc2)c(=O)c1N=Nc1ccc(S(=O)(=O)O)cc1
result: class 0

query: Next compound up: Cc1cn([C@H]2C=C[C@@H](CO)O2)c(=O)[nH]c1=O
result: class 0

query: Next compound up: COC(=O)[C@H]1[C@H]2C[C@@H]3c4[nH]c5cc(OC)ccc5c4CCN3C[C@H]2C[C@@H](OC(=O)c2cc(OC)c(OC)c(OC)c2)[C@@H]1OC
result: class 1

query: Next compound up: CC(=O)S[C@H](C(=O)N[C@H]1Cc2ccccc2[C@H]2CCC[C@@H](C(=O)O)N2C1=O)C(C)C
result: class 0
